- System: Staphylococcus aureus
- protocolText: Antibacterial activity against methicillin-sensitive Staphylococcus aureus ATCC29213 measured after 24 hrs by broth microdilution method
- Type: functional
parameterMeasured: MIC (µg/mL)
Record the value in µg/mL, omitting the unit from your answer.

[
  {
    "compoundStructure": "C/C=C1\\NC(=O)[C@@H](CC)NC(=O)CNC(=O)[C@](C)([C@H](C)O)NC(=O)[C@H](Cc2c[nH]c3cccc(OC)c23)NC(=O)c2csc(n2)[C@@H](C)NC(=O)CN(C)C1=O",
    "parameterMeasured": "MIC",
    "measuredResult": 20
  },
  {
    "compoundStructure": "C/C=C1\\NC(=O)[C@@H](CC)NC(=O)CNC(=O)[C@](C)(C(C)=O)NC(=O)[C@H](Cc2c[nH]c3cccc(OC)c23)NC(=O)c2csc(n2)[C@@H](C)NC(=O)CN(C)C1=O",
    "parameterMeasured": "MIC",
    "measuredResult": 2.5
  },
  {
    "compoundStructure": "CN[C@H](CC(C)C)C(=O)N[C@H]1C(=O)N[C@@H](CC(N)=O)C(=O)N[C@H]2C(=O)N[C@H]3C(=O)N[C@H](C(=O)N[C@H](C(=O)O)c4cc(O)cc(O)c4-c4cc3ccc4O)[C@H](O)c3ccc(c(Cl)c3)Oc3cc2cc(c3O[C@@H]2O[C@H](CO)[C@@H](O)[C@H](O)[C@H]2O[C@H]2C[C@](C)(N)[C@H](O)[C@H](C)O2)Oc2ccc(cc2Cl)[C@H]1O",
    "parameterMeasured": "MIC",
    "measuredResult": 1.25
  }
]

Could you now consider this next compound?
stdin: Supply measured MIC of Cc1onc(-c2ccccc2)c1C(=O)N[C@@H]1C(=O)N2[C@@H]1SC(C)(C)[C@@H]2C(=O)O in your reply.
stdout: 0.078

----------
Reported MIC values for a set of molecules
- Test system: Staphylococcus aureus
- protocolText: Antibacterial activity against methicillin-sensitive Staphylococcus aureus ATCC29213 measured after 24 hrs by broth microdilution method
- Assay type: functional

[
  {
    "compoundStructure": "C/C=C1\\NC(=O)[C@@H](CC)NC(=O)CNC(=O)[C@](C)([C@@H](C)O)NC(=O)[C@H](Cc2c[nH]c3cccc(OC)c23)NC(=O)c2csc(n2)[C@@H](C)NC(=O)CN(C)C1=O",
    "measuredResult": "10 µg/mL"
  },
  {
    "compoundStructure": "C/C=C1\\NC(=O)[C@@H](CC)NC(=O)CNC(=O)[C@](C)(C(C)=O)NC(=O)[C@H](Cc2c[nH]c3cccc(OC)c23)NC(=O)c2csc(n2)[C@@H](C)NC(=O)CNC1=O",
    "measuredResult": "> 160 µg/mL"
  }
]

Could you now consider this next molecule?
stdin: Supply measured MIC of C/C=C1\NC(=O)[C@@H](C)NC(=O)CNC(=O)[C@](C)(C(C)=O)NC(=O)[C@H](Cc2c[nH]c3cccc(OC)c23)NC(=O)c2csc(n2)[C@@H](C)NC(=O)CNC1=O in your reply.
stdout: > 160 µg/mL

----------
- Tested on: Influenza A virus
- protocolText: Antiviral activity against Influenza A virus A/WSN/33(H1N1) infected in HEK293T cells pretreated for 2 hrs followed by viral infection and measured after 24 hrs by Gaussia luciferase assay
- Format: functional, organism-based
- measurementParameters: HEK-293T
pEC50: −log10 of the molar value.
Reported pEC50 values for a set of compounds

// solved cases for pEC50 follow
[
  {
    "compoundStructure": "C/C=C1\\NC(=O)[C@@H](CC)NC(=O)CNC(=O)[C@](C)([C@@H](C)O)NC(=O)[C@H](Cc2c[nH]c3cccc(OC)c23)NC(=O)c2csc(n2)[C@@H](C)NC(=O)CN(C)C1=O",
    "parameterMeasured": "pEC50",
    "measuredResult": "< 4.30"
  },
  {
    "compoundStructure": "C/C=C1\\NC(=O)[C@@H](CC)NC(=O)CNC(=O)[C@](C)([C@H](C)O)NC(=O)[C@H](Cc2c[nH]c3cccc(OC)c23)NC(=O)c2csc(n2)[C@@H](C)NC(=O)CN(C)C1=O",
    "parameterMeasured": "pEC50",
    "measuredResult": "< 4.30"
  }
]

Could you now consider this next compound?
stdin: Supply measured pEC50 of C=C1NC(=O)[C@@H](CC)NC(=O)CNC(=O)[C@](C)(C(C)=O)NC(=O)[C@H](Cc2c[nH]c3cccc(OC)c23)NC(=O)c2csc(n2)[C@@H](C)NC(=O)CN(C)C1=O in your reply.
stdout: < 4.30
